System: LOC_OS01G52050-cb004
Sequence (whole entry): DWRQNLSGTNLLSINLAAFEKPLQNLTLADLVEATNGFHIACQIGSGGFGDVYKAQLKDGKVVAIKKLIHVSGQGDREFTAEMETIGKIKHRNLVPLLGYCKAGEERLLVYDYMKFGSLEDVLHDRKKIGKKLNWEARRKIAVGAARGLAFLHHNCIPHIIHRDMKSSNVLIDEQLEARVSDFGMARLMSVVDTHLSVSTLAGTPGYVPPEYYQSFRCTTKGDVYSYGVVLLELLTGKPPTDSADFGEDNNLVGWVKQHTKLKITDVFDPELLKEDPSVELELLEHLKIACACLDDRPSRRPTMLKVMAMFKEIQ
Assay: thermal shift delta Tm vs DMSO control; higher = stronger stabilization (binding);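 further: purified Escherichia coli-expressed rice kinase domain construct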
Details: 12.5 µM; protein concentration 2 µM
Listed below: thermal shift delta Tm values for each entry.
Lab book: enter the figure in °C, no units written.

Here's what some known entries look like.
INSERT INTO assay_data (molecule, number) VALUES
  ('CN1CC(O)C2=C/C(=N/NC(N)=O)C(=O)C=C21 (stereo unspecified)', -1.17),
  ('N#Cc1cccc(-c2c[nH]c3ncnc(N4CCOCC4)c23)c1', 1.08),
  ('COc1ccc(-c2ccc3c(N4CCOC[C@@H]4C)nc(N4CCOC[C@@H]4C)nc3n2)cc1CO', 0.06);

Lookup: Item CCn1cc(-c2ccnc3[nH]c(-c4cccc(CN(C)C)c4)cc23)c(-c2ccc(NC(=O)N(C)C)cc2)n1 has what recorded thermal shift delta Tm?
Found: 0.87

Lookup: Quick check: thermal shift delta Tm of CC[C@H](CO)Nc1nc(NCc2ccccc2)c2ncn(C(C)C)c2n1 [Roscovitine (Seliciclib,CYC202)] ?
Found: 0.24

Lookup: // lookup thermal shift delta Tm for CCS(=O)(=O)Nc1ccc2c(c1)/C(=C(/Nc1ccc(CN3CCCCC3)cc1)c1ccccc1)C(=O)N2
Found: 6.95

* * *

Tested on: LOC_OS02G07810-cb001
Test: thermal shift delta Tm vs DMSO control; higher = stronger stabilization (binding)
Conditions: 12.5 µM; protein concentration 2 µM
# thermal shift delta Tm annotations
Could you give the number and then its unit, please?

Some solved entries appear below for comparison.
INSERT INTO results (compound, result) VALUES
  ('O=C(O)c1cc(O)c2c(c1)[C@@H]([C@H]1c3cc(C(=O)O)cc(O)c3C(=O)c3c(O[C@@H]4O[C@H](CO)[C@@H](O)[C@H](O)[C@H]4O)cccc31)c1cccc(O[C@@H]3O[C@H](CO)[C@@H](O)[C@H](O)[C@H]3O)c1C2=O [Sennoside B]', '0.69 °C'),
  ('COCC(=O)NC/C=C/c1ccc2ncnc(Nc3ccc(Oc4ccc(C)nc4)c(C)c3)c2c1', '0.15 °C');

Let us examine a further case.
Lookup: Kindly state the measured thermal shift delta Tm obtained for COc1cc2nccc(Oc3ccc(NC(=O)C4(C(=O)Nc5ccc(F)cc5)CC4)cc3)c2cc1OC with LOC_OS02G07810-cb001.
Found: 1.4 °C

* * *

Test system: LOC_OS05G28520-cb001
Experiment: thermal shift delta Tm vs DMSO control; higher = stronger stabilization (binding)
Conditions: 12.5 µM; protein concentration 2 µM
measurement_name: thermal shift delta Tm

Would you please look over these solved cases?
INSERT INTO results (molecule, result) VALUES
  ('Cc1ccc(S(=O)(=O)/C=C/C#N)cc1', '0.54 °C'),
  ('Cc1cnc(Nc2ccc(N3CCN(C)CC3)cc2)nc1Nc1cccc(S(=O)(=O)NC(C)(C)C)c1', '1.9 °C'),
  ('CC(C)c1ccc2oc3nc(N)c(C(=O)O)cc3c(=O)c2c1', '0.29 °C'),
  ('O=C(Nc1ccc(-c2ccnc(Nc3ccc(N4CCOCC4)cc3)n2)cc1)C1CCCN1 (centres undefined)', '0.58 °C'),
  ('O=c1cc(N2CCOCC2)oc2c(-c3ccccc3)cccc12', '0.91 °C');

Lookup: Record request: thermal shift delta Tm value, item CC1(C)OC(=O)C=C[C@]2(C)[C@H]3CC[C@@]4(C)[C@H](c5ccoc5)OC(=O)[C@H]5O[C@]54[C@]3(C)C(=O)C[C@@H]12
Found: 0.17 °C

Lookup: Form field: reported thermal shift delta Tm of O=C(/C=C/c1ccc(O)c(O)c1)c1ccc(O)cc1O
Found: 1.45 °C

Lookup: Given the molecule O=C1NC(=O)/C(=C/c2ccc3nccc(-c4ccncc4)c3c2)S1 , what is its reported thermal shift delta Tm?
Found: 0.11 °C

Lookup: // lookup thermal shift delta Tm for N#Cc1c(O)c2c(-c3ccc(-c4ccccc4O)cc3)csc2[nH]c1=O
Found: 1.06 °C

* * *

System: LOC_OS06G22820-cb001
Sequence (as listed by the source): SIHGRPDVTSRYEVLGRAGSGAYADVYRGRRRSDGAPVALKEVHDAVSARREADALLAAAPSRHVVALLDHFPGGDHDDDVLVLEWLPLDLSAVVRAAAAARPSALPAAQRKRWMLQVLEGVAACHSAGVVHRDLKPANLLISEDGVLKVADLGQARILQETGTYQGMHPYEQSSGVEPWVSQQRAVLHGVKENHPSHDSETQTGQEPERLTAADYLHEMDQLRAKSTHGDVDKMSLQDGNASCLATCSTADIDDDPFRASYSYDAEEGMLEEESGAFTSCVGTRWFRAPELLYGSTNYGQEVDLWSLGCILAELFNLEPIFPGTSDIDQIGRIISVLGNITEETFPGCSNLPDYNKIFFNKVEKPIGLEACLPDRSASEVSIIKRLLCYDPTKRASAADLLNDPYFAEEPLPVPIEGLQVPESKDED
Test: thermal shift delta Tm vs DMSO control; higher = stronger stabilization (binding)
Settings: 12.5 µM; protein concentration 2 µM
measurement_name: thermal shift delta Tm

INSERT INTO assay_data (molecule, result) VALUES
  ('COc1cc(Nc2ncc(F)c(Nc3ccc4c(n3)NC(=O)C(C)(C)O4)n2)cc(OC)c1OC', '0.02 °C'),
  ('CNc1nc(Nc2cnn([C@H]3CCN(C4COC4)C[C@@H]3F)c2Cl)ncc1C(F)(F)F', '0.65 °C'),
  ('CN1CCN(CCOc2cc(OC3CCOCC3)c3c(Nc4c(Cl)ccc5c4OCO5)ncnc3c2)CC1', '0.89 °C'),
  ('CC(C)c1c2cc(-c3ccnc(NC4CCC(NC5CCOCC5)CC4)n3)ccc2nn1C (stereo not drawn)', '0.19 °C'),
  ('CN1c2ccccc2C(=O)Nc2cnc(Nc3ccc(N4CCC(O)CC4)cc3)nc21', '0.43 °C'),
  ('Cn1cc(-c2ccc3c(c2)CCN3C(=O)Cc2cccc(C(F)(F)F)c2)c2c(N)ncnc21', '0.97 °C');

Lookup: Please look up its thermal shift delta Tm: C[C@@H]1CN(CC(=O)Nc2ccc3c(c2)Cc2cccc(-c4cc(=O)cc(N5CCOCC5)o4)c2S3)C[C@H](C)O1
Found: 0.77 °C

Lookup: // thermal shift delta Tm lookup, key: CN1CCN(c2ccc3nc(-c4c(N)c5c(F)cccc5[nH]c4=O)[nH]c3c2)CC1 [Dovitinib (TKI-258, CHIR-258)]
Found: 0.56 °C

* * *

Quick reference: thermal shift delta Tm of the listed items.
System: LOC_OS01G52050-cb004
Test: thermal shift delta Tm vs DMSO control; higher = stronger stabilization (binding)
Details: 12.5 µM; protein concentration 2 µM
Quick note: give the figure in °C, leave out the unit.

Solved cases below.
INSERT INTO results (substance_smiles, measurement_name, unit_tag, number) VALUES
  ('C=C[C@@](C)(/C=C/c1ccc(O)cc1)CCC=C(C)C', 'thermal shift delta Tm', '°C', 3.47),
  ('c1cn2cc(-c3ccc4cn[nH]c4c3)nc(Nc3ccc(N4CCOCC4)cc3)c2n1', 'thermal shift delta Tm', '°C', 3.88);

Lookup: # input compound: Cc1ccc(-n2nc(C(C)(C)C)cc2NC(=O)Nc2ccc(OCCN3CCOCC3)c3ccccc23)cc1 ; wanted: its thermal shift delta Tm
Found: 1.1

Lookup: Consider the compound shown here: CNC(=O)c1ccc(C)c(-n2c(C)cc(OCc3ccc(F)cc3F)c(Br)c2=O)c1 What is its recorded thermal shift delta Tm?
Found: 0.41

Lookup: Which thermal shift delta Tm value is on record for CN1CCN(c2ccc(-c3ccncc3-c3cc(F)c(O)c(F)c3)cc2)CC1 ?
Found: 0.14

Lookup: Param item = Nc1nc(N)c(N=O)c(OCC2CCCCC2)n1 ; retrieve measured thermal shift delta Tm.
Found: 1.13

Lookup: For N#CCNC(=O)c1ccc(-c2ccnc(Nc3ccc(N4CCOCC4)cc3)n2)cc1 , what is its reported thermal shift delta Tm?
Found: 3.27

Lookup: Which thermal shift delta Tm value belongs to NC1(Cc2ccc(Cl)cc2)CCN(c2ncnc3[nH]ccc23)CC1 ?
Found: 0.94

Lookup: Requested field: thermal shift delta Tm. Item: C=CC(=O)Nc1cccc(C)c1Nc1ncc2cc(-c3c(Cl)c(OC)cc(OC)c3Cl)ccc2n1
Found: 0.2

* * *

Test system: LOC_OS06G16330-cb003
Sequence (as listed by the source): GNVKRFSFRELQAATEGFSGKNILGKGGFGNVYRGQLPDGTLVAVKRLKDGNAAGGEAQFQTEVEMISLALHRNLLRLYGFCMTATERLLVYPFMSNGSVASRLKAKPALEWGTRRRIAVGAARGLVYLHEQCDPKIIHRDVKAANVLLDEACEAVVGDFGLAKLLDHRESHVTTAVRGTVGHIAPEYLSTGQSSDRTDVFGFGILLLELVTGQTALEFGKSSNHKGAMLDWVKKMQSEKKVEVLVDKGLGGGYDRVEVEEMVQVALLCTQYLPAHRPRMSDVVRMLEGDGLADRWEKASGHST
Assay: thermal shift delta Tm vs DMSO control; higher = stronger stabilization (binding)
Settings: 12.5 µM; protein concentration 2 µM
measurement_name: thermal shift delta Tm (°C)
Respond with the bare value in °C.

Worked examples follow.
INSERT INTO measurements (compound, measurement_name, number) VALUES
  ('O=C1Nc2ccccc2/C1=C1/Nc2ccccc2C1=O [Indirubin]', 'thermal shift delta Tm', 0.35),
  ('C[C@@H](Oc1cc(-c2cnn(C3CCNCC3)c2)cnc1N)c1c(Cl)ccc(F)c1Cl', 'thermal shift delta Tm', 10.8),
  ('CC(C)Nc1cc(-c2c[nH]c(C(=O)N[C@H](CO)c3cccc(Cl)c3)c2)c(Cl)cn1', 'thermal shift delta Tm', 0.62),
  ('CCn1cc(-c2ccnc3[nH]c(-c4cccc(CN(C)C)c4)cc23)c(-c2ccc(NC(=O)N(C)C)cc2)n1', 'thermal shift delta Tm', 4.22),
  ('O=C(NCc1ccccc1)c1csc(Nc2ccncn2)n1 [Thiazovivin]', 'thermal shift delta Tm', 0.41);

Lookup: Which measured thermal shift delta Tm value corresponds to Cn1cc(-c2ccc3nnc(Sc4ccc5ncccc5c4)n3n2)cn1 ?
Found: 0.16

Lookup: Report thermal shift delta Tm for CN1CCC(Nc2nc(Nc3ccc(Oc4ccccc4)cc3)c3c(=O)[nH]cc(Br)c3n2)CC1 please.
Found: 2.6

Lookup: Report thermal shift delta Tm for Cc1cc(C(=O)NOCCO)c(Nc2ccc(I)cc2F)n(C)c1=O please.
Found: -0.11

Lookup: Which thermal shift delta Tm is reported for this compound? CC(C)(C)c1cc(/C=C(\C#N)C(N)=S)cc(C(C)(C)C)c1O [Tyrphostin AG 879]
Found: 1.66
